Test system: Mus musculus
measurement_notes: In vivo euglycemic activity (administered by oral gavage) in C57/6J-ob/ob mice by normalization of blood glucose levels at a dose of 1 mg/kg.
Type: functional

# compound, reading_unit, Normalization
rows = [
    ("Cc1cc(-c2nc(CCC(=O)c3ccc(CC4SC(=O)NC4=O)cc3)c(C)o2)cc(C)c1O (centres undefined)", "%", 100),
    ("Cc1oc(-c2ccccc2)nc1CCC(O)c1ccc(CC2SC(=O)NC2=O)s1 (centres undefined)", "%", 23),
    ("CO/N=C(\\CCc1nc(-c2ccccc2)oc1C)c1ccc(CC2SC(=O)NC2=O)cc1 (centres undefined)", "%", 0),
    ("Cc1oc(-c2ccccc2)nc1CCS(=O)(=O)c1ccc(CC2SC(=O)NC2=O)cc1 (centres undefined)", "%", 11),
    ("Cc1ccc(-c2nc(CCC(=O)c3ccc(/C=C4\\SC(=O)NC4=O)cc3)c(C)o2)cc1", "%", 0),
    ("Cc1oc(-c2ccco2)nc1CCC(=O)c1ccc(CC2SC(=O)NC2=O)cc1 (centres undefined)", "%", 61),
    ("COc1ccc(-c2nc(CCC(=O)c3ccc(/C=C4\\SC(=O)NC4=O)cc3)c(C)o2)cc1", "%", 62),
    ("Cc1oc(-c2ccc(C(F)(F)F)cc2)nc1CCC(=O)c1ccc(/C=C2\\SC(=O)NC2=O)cc1", "%", 58),
    ("Cc1oc(-c2ccc(C(F)(F)F)cc2)nc1CCC(=O)c1ccc(CC2SC(=O)NC2=O)cc1 (centres undefined)", "%", 86),
]

Data origin, for the record: ChEMBL document CHEMBL1126043
